Molecular target: ScBbc1
Test: SPOT peptide array binding signal intensity (averaged, normalized) (arbitrary units (background-subtracted, floor 0; scale differs between SH3 domains)); higher = stronger binding of the SH3 domain to the peptide
Property Name: SPOT peptide array binding signal intensity

Binder | Result
EQEEIAPSLPSRNSI | ≤ 0
APKHAPPPVPNETDN | ≤ 0
KDKKTKPTPPPKPSH | ≤ 0
GDHPKGPPPPPPPPD | ≤ 0
NILKRRPLKLEAPSK | ≤ 0
QTMRQAPKRPDADVA | 68.5
VRTRRRPPPPPIPST | 358
RRRRRPHRIERPLSN | 124
KLSRGRYGLPLSSRP | 8.5
VDFTLPPPPPPPGLD | ≤ 0
